Recorded measurements of normalised response, one per entry
Tested on: CAL-120
Experiment: normalised response (% of control), CellTox Green; higher = less cell death (100 = DMSO, 0 = benzethonium chloride kill control)
Conditions: incubation time: 72 h

COMPOUND: CCOc1cc2ncc(C#N)c(Nc3ccc(OCc4ccccn4)c(Cl)c3)c2cc1NC(=O)/C=C/CN(C)C [Neratinib] (100 nM)
normalised response: 106%
//
COMPOUND: COc1ncc(-c2ccc3nccc(-c4ccnnc4)c3c2)cc1NS(=O)(=O)c1ccc(F)cc1F (100 nM)
normalised response: 102%
//
COMPOUND: CN1CCN(c2ccc3nc(-c4c(N)c5c(F)cccc5[nH]c4=O)[nH]c3c2)CC1 [Dovitinib] (1000 nM)
normalised response: 94%
//
COMPOUND: COC1=CC(c2cc3ccccc3[nH]2)=N/C1=C\c1[nH]c(C)cc1C [Obatoclax] (100 nM)
normalised response: 95%
//
COMPOUND: O=C(c1ccc(OCCN2CCCCC2)cc1)c1c(-c2ccc(O)cc2)sc2cc(O)ccc12 [Raloxifene] (100 nM)
normalised response: 98.8%
//
COMPOUND: FC(F)c1nc2ccccc2n1-c1nc(N2CCOCC2)nc(N2CCOCC2)n1 [ZSTK474] (1000 nM)
normalised response: 107%
//
COMPOUND: CN(c1ccccc1CNc1nc(Nc2ccc3c(c2)CC(=O)N3)ncc1C(F)(F)F)S(C)(=O)=O (100 nM)
normalised response: 99.9%
//
COMPOUND: C[C@@]1(C(=O)Nc2ccc(F)nc2)CCCN1c1nc(Nc2cc(C3CC3)n[nH]2)c2cccn2n1 (100 nM)
normalised response: 100%
//
COMPOUND: COc1c(C)cnc(Cn2cnc3c(Cl)nc(N)nc32)c1C [BIIB021] (10000 nM)
normalised response: 94.9%
//
COMPOUND: FC(F)c1nc2ccccc2n1-c1nc(N2CCOCC2)nc(N2CCOCC2)n1 [ZSTK474] (100 nM)
normalised response: 102%
//
COMPOUND: COC1=C2C[C@@H](C)C[C@H](OC)[C@H](O)[C@@H](C)/C=C(\C)[C@H](OC(N)=O)[C@@H](OC)/C=C\C=C(/C)C(=O)NC(=CC1=O)C2=O [Geldanamycin] (100 nM)
normalised response: 99.7%
//
COMPOUND: CCCC(CCC)C(=O)O [Valproic acid] (100000 nM)
normalised response: 107%
//
COMPOUND: Cc1cc(C(C)Nc2ccccc2)c2nc(N3CCOCC3)cc(=O)n2c1 (centres undefined) [TGX-221] (1000 nM)
normalised response: 99.8%
//
COMPOUND: COc1ccc(C2=N[C@@H](c3ccc(Cl)cc3)[C@@H](c3ccc(Cl)cc3)N2C(=O)N2CCNC(=O)C2)c(OC(C)C)c1 [Nutlin-3] (10000 nM)
normalised response: 98.2%
